Kindly state IC50 for each of the entries shown.
target: PD-1/PD-L1 interaction (PD-1-Ig / PD-L1-His) (Homo sapiens, UniProt Q9NZQ7); construct: hPDL1(18-239)-TVMV-His; TVMV protease site linker (C); made in house; host or cells: HEK293T; test: PD-1/PD-L1 Homogenous Time-Resolved Fluorescence (HTRF) binding assay; details: numeric IC50; PD-L1-His 10 nM, PD-1-Ig 20 nM; read-out: Range or IC50
Sequence (Q9NZQ7 with tags, fused parts or gaps): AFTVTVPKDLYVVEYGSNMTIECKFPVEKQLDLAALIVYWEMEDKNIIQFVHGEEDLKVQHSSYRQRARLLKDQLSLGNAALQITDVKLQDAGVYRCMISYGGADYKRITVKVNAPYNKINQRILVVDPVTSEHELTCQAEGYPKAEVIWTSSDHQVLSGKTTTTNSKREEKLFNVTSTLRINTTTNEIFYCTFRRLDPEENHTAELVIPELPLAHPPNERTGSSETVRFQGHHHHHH
The figure you give is taken to be in nM; do not add the unit.

Find the measured IC50 of COC(=O)[C@@H](NCc1cc(Cl)c(OCc2cccc(-c3cccc(COc4cc(OCc5cncc(C#N)c5)c(CN[C@H](C(=O)OC)[C@@H](C)OC(C)(C)C)cc4Cl)c3C)c2C)cc1OCc1cncc(C#N)c1)[C@@H](C)OC(C)(C)C and report it. 168

Fill in reported IC50 for this entry: Cc1c(OCCCN2CC[C@@H](O)C2)cccc1-c1cccc(OCCCN2CC[C@@H](O)C2)c1Cl 12

Supply reported IC50 belonging to this compound: Cc1c(OCCCN(Cc2cncc(C#N)c2)C[C@H](O)CO)cccc1-c1cccc(OCCCN(Cc2cncc(C#N)c2)C[C@H](O)CO)c1C 1250
